- Experiment Summary: Cytotoxicity activity against human HepG2 cells assessed by CellTiter-Glo luminescent cell viability assay.
- Type: toxicity, cell-based
- Set-up: assay stage confirmatory assay, source tissue liver
- Setup Conditions: HepG2 cells, read-out: IC50 relative
The source made the active and inactive calls. No rule for the calls is given here.
Mark one answer only. Choices: active, inactive

Field: example entries. Status: answers known.
- Compound: "Cc1cc(C)n(C(=O)Cc2cccs2)n1"
  Answer Label: "inactive"
- Compound: "Cc1ccc(NC(=O)Nc2ccc3c(c2)N(S(C)(=O)=O)CC3)cc1"
  Answer Label: "inactive"
- Compound: "CC(=O)Nc1ccc(Nc2nc(C)cc(N3CCCC3)n2)cc1"
  Answer Label: "active"
- Compound: "O=C(CC1Sc2ncnn2C1=O)Nc1ccc(Br)cc1 (stereo unspecified)"
  Answer Label: "inactive"
- Compound: "CCN(c1nc(N)c(C(=O)NC(=N)N)nc1Cl)C(C)C"
  Answer Label: "active"

Field: outcome | Entry: COc1ccc(-c2cc(C(=O)N3CCCCC3C)n[nH]2)cc1S(=O)(=O)N1CCCCC1 (stereo unspecified)
inactive

Field: outcome | Entry: `CN1CCCN(C(=O)c2cccc(-c3ccc(/C=C4/C(=O)Nc5ccc(Cl)cc54)o3)c2)CC1`
active

Field: outcome | Entry: CNc1ncc2cc(-c3cc(NC(=O)NCCC(C)(C)C)c(F)cc3C)c(C)nc2n1 [LY-3009120]
active

Field: outcome | Entry: OC1(CNCCSCc2cccc(Cl)c2)CCNC1 (stereo unspecified)
active

Field: outcome | Entry: `CCc1nccn1[C@H]1CCCN(CCOc2ccccc2F)C1`
active

Field: outcome | Entry: `COc1cc(OC2CCN(C)CC2)ccc1Nc1ncc2c(n1)n(C1CCCC1)c(=O)n2C`
active
